// data source = paper PMC10269775

- subject of test: PBP1 (Neisseria gonorrhoeae, UniProt O05131, A375T/F666S)
- Construct: endogenous in cells; host or cells: N. gonorrhoeae ATCC 49226, isolated membrane preparation
- Sequence (O05131 whole entry A375T/F666S): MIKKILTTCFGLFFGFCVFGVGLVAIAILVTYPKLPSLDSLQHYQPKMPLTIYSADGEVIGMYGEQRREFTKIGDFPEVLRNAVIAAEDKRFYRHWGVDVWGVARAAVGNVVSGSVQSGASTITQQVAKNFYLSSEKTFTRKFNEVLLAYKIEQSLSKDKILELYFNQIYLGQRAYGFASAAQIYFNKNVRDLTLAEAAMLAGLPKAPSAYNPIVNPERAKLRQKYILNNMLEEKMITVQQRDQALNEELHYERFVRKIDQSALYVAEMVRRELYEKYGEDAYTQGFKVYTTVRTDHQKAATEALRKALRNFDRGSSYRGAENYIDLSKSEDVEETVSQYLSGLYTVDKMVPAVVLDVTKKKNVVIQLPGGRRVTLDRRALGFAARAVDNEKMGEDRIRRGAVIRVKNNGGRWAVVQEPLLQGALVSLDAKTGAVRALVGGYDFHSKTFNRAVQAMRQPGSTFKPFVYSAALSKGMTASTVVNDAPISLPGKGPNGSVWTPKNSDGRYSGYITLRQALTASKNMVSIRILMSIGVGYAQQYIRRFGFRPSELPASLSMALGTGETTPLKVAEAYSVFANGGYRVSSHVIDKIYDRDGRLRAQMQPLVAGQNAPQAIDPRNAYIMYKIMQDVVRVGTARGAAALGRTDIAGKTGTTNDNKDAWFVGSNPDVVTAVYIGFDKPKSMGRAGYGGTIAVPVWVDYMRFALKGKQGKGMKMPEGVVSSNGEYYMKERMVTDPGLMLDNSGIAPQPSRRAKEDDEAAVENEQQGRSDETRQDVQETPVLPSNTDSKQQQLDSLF
- measurement protocol: PBP-binding assay (Bocillin FL) in isolated membrane preparations
- Design: species or system Neisseria gonorrhoeae ATCC 49226
- test context: IC50 PBP1, strain ATCC 49226; membrane preparation, 30 min drug then Bocillin FL
- From the text: Bacterial membranes were collected by ultracentrifugation.
property measured: IC50

Previously resolved entries follow.
What IC50 value was documented for this compound, CC1(C)S[C@@H]2[C@H](NC(=O)[C@H](C(=O)O)c3ccsc3)C(=O)N2[C@H]1C(=O)O ?
> 5.2 µM

Another compound: NC(=O)[C@@H]1CC[C@@H]2CN1C(=O)N2OS(=O)(=O)O
> 965 µM

The record that follows has no IC50 shown yet.
What IC50 value was documented for this compound, Cn1c(N)c(NC(=O)NCCN)c[n+]1CC1=C(C(=O)O)N2C(=O)[C@@H](NC(=O)/C(=N\OC(C)(C)C(=O)[O-])c3nsc(N)n3)[C@H]2SC1 ?
> 3 µM

* * *

Would you mind telling me the reported IC50 of each entry?
- subject of test: PBP2 (Neisseria gonorrhoeae, UniProt P08149)
- Sequence (P08149 whole entry): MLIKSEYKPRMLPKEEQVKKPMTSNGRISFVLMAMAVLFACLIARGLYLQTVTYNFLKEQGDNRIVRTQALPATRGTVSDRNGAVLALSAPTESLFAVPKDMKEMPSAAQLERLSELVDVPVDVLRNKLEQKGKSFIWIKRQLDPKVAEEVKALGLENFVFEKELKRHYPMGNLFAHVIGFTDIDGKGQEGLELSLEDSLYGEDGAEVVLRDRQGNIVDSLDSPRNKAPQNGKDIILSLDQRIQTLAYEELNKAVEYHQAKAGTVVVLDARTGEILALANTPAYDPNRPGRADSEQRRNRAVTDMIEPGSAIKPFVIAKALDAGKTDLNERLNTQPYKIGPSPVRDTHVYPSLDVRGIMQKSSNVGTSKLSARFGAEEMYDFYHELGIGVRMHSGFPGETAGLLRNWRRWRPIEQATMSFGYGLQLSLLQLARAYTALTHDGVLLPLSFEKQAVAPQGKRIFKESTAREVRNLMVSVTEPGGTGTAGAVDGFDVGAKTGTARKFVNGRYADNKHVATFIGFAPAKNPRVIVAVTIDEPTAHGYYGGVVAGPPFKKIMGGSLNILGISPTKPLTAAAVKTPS
- test context: read-out: IC50 for PBP2; across both strains ATCC 19424 and ATCC 49226
One number for each entry, in nM.

What IC50 value was documented for this compound, CC(C)(O/N=C(\C(=O)N[C@@H]1C(=O)N2C(C(=O)[O-])=C(C[n+]3ccccc3)CS[C@H]12)c1csc(N)n1)C(=O)O [CAZ, ceftazidime] ?
18.3

Another compound: CO/N=C(\C(=O)N[C@@H]1C(=O)N2C(C(=O)O)=C(COC(C)=O)CS[C@H]12)c1csc(N)n1 [CTX, cefotaxime]
22

The record that follows has no IC50 shown yet.
What IC50 value was documented for this compound, C=CC1=C(C(=O)O)N2C(=O)[C@@H](NC(=O)/C(=N\OCC(=O)O)c3csc(N)n3)[C@H]2SC1 [CFM, cefixime] ?
22.1

* * *

- Tested on: N. gonorrhoeae ATCC 49226
- measurement protocol: MIC, CLSI broth microdilution
- Assay type: cell-based, Neisseria gonorrhoeae
- test context: Neisseria gonorrhoeae, ATCC49226; strain ATCC 49226; read-out: MIC
Would you mind telling me the reported MIC of each entry?
One number for each entry, in µg/mL.

Previously resolved entries follow.
What MIC value was documented for this compound, C[C@@H](O)[C@H]1C(=O)N2C(C(=O)O)=C(SCCN=CN)C[C@H]12 [IPM, imipenem] ?
0.064

Another compound: CC1(C)S[C@@H]2[C@H](/N=C/N3CCCCCC3)C(=O)N2[C@H]1C(=O)O [MEC, amdinocillin]
8

Another compound: CO/N=C(\C(=O)N[C@@H]1C(=O)N2C(C(=O)[O-])=C(C[N+]3(C)CCCC3)CS[C@H]12)c1csc(N)n1 [FEP, cefepime]
0.032

Another compound: C[C@@H](O)[C@H]1C(=O)N2C(C(=O)O)=C(S[C@@H]3CN[C@H](C(=O)N(C)C)C3)[C@H](C)[C@H]12 [MEM, meropenem]
0.016

Another compound: CO[C@@]1(NC(=O)Cc2cccs2)C(=O)N2C(C(=O)O)=C(COC(N)=O)CS[C@@H]21 [FOX, cefoxitin]
0.5

Another compound: C[C@@H](O)[C@H]1C(=O)N2C(C(=O)O)=C(S[C@@H]3CN[C@H](CNS(N)(=O)=O)C3)[C@H](C)[C@H]12 [DOR, doripenem]
0.032

The record that follows has no MIC shown yet.
What MIC value was documented for this compound, CCO/N=C(\C(=O)N[C@@H]1C(=O)N2C(C(=O)[O-])=C(Sc3nc(-c4cc[n+](C)cc4)cs3)CS[C@H]12)c1nsc(N)n1 [CPT, ceftaroline] ?
0.5
